# ASSAYED TARGET: UniProtKB Q5JUK3
# MEASUREMENT PROTOCOL: FLIPR Tl/K Flux Assay
# TEST CONDITIONS: HEK293 cells stably expressing human KCNT1; Tl+ flux stimulated with EC80 of agonist Loxapine
VALUE KIND: IC50

Some solved cases for reference:
MOLECULE: O=C(N[C@H]1CCc2nn(-c3ccnc(C(F)(F)F)c3)cc21)c1cnn(C(F)(F)F)c1 [Compound I-566a]
IC50: < 250 nM
--
MOLECULE: Cc1nc(C(=O)N[C@H]2CCn3nc(-c4ccnc(C5CC5)c4)cc32)n(C)n1 [Compound I-218a]
IC50: 250 to 500 nM
--
MOLECULE: COc1ccccc1C(=O)N[C@H]1CCc2nn(-c3ccnc(C(F)(F)F)c3)cc21 [Compound I-94a]
IC50: < 250 nM

Please report IC50 for every entry that follows.
1. Cn1nc(C(F)(F)F)cc1C(=O)N[C@@H]1CCc2nn(-c3ccnc(OC(F)F)c3)cc21 [Compound I-74b]
2. Cc1cc(C)cc(C(=O)N[C@H]2CCc3nn(-c4ccnc(C(F)(F)F)c4)cc32)c1 [Compound I-372a]
3. O=C(N[C@H]1CCCc2oc(-c3cc(C(F)(F)F)ncc3F)nc21)c1cccc(C(F)(F)F)c1 [Compound I-554a]
4. Cn1nc(C(F)(F)F)cc1C(=O)N[C@H]1CCCc2nc(-c3ccnc(C(F)(F)F)c3)ccc21 (single isomer, unassigned)

Result:
["> 1000 nM", "< 250 nM", "< 250 nM", "< 250 nM"]

====

# ASSAYED TARGET: human, KCNT1 (Homo sapiens (Human), UniProt Q5JUK3)
# Sequence (Q5JUK3 whole entry): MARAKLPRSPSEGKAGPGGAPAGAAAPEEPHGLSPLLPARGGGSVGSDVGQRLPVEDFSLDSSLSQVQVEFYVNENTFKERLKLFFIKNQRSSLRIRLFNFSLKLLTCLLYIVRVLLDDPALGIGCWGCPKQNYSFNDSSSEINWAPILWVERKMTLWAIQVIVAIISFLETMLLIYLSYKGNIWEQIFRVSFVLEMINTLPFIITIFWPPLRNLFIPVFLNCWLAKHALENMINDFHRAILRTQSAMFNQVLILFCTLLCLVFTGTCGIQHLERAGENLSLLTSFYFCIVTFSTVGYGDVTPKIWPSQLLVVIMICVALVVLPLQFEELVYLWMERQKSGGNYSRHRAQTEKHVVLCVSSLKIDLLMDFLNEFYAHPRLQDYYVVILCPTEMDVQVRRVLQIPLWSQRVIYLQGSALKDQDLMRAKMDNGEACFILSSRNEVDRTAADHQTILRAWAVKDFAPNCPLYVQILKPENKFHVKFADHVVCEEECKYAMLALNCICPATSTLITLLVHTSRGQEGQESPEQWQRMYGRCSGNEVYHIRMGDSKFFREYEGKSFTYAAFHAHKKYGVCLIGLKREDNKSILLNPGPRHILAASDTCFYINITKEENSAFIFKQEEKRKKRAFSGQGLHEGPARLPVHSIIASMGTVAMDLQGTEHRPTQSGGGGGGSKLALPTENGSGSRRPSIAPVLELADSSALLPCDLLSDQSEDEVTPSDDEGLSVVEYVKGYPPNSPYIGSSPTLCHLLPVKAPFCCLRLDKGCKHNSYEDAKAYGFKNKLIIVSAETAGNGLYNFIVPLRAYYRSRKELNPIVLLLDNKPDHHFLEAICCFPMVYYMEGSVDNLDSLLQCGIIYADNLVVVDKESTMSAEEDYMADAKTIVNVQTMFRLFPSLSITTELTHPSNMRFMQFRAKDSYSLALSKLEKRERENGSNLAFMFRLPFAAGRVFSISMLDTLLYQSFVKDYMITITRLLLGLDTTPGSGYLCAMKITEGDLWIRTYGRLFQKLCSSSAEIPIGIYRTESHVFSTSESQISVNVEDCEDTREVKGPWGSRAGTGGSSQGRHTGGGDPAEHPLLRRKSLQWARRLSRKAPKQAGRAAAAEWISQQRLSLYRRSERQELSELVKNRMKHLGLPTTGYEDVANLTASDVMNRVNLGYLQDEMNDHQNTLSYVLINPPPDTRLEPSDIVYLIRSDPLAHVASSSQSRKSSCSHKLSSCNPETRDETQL
# MEASUREMENT PROTOCOL: FLIPR Tl/K Flux Assay
# TEST CONDITIONS: HEK293 cells stably expressing human KCNT1; Tl+ flux stimulated with EC80 of agonist Loxapine
pIC50: −log10 of the molar value.
Please go through the items and note down their pIC50.

These recorded examples may help you get a feel for the data.
COMPOUND: COC12CC(C(=O)N[C@H]3CCn4nc(-c5cc(C(F)(F)F)ncc5F)cc43)(C1)C2 [Compound I-525a]
pIC50: > 6.60
--
COMPOUND: COc1cc(-c2cc3n(n2)CC[C@@H]3NC(=O)c2cc(C(F)(F)F)nn2C)ccn1 [Compound I-427a]
pIC50: > 6.60
--
COMPOUND: Cc1c(-c2ccnc(C(F)(F)F)c2)nn2c1[C@H](NC(=O)c1cc(C(F)(F)F)nn1C)CCC2 [Compound I-353b]
pIC50: 6.00 to 6.30
--
COMPOUND: Cn1nc(C2CC2)cc1C(=O)N[C@H]1CCCCn2nc(-c3ccnc(C(F)(F)F)c3)cc21 [Compound I-388a]
pIC50: > 6.60
--
COMPOUND: N#Cc1cc(C(=O)N[C@H]2CCCn3nc(-c4ccnc(C(F)(F)F)c4)cc32)cc(C(F)(F)F)c1 [Compound I-295a]
pIC50: > 6.60
--
COMPOUND: Cn1nc(C(F)(F)F)cc1C(=O)N[C@@H]1CCCc2cnc(-c3ccnc(C(F)(F)F)c3)nc21 [Compound I-452b]
pIC50: < 6.00
--
COMPOUND: Cn1nc(C(F)(F)F)cc1C(=O)N[C@H]1CCCc2cc(-c3ccnc(C(F)(F)F)c3)[nH]c21 [Compound I-89a]
pIC50: < 6.00
--
COMPOUND: O=C(N[C@H]1CCn2nc(-c3cc(C(F)(F)F)ncc3F)cc21)c1ccnc(OC(F)(F)F)c1 [Compound I-536a]
pIC50: > 6.60
--
COMPOUND: CC(C)Oc1cc(C(=O)N[C@H]2CCCn3nc(-c4ccnc(C(F)(F)F)c4)cc32)n(C)n1 [Compound I-367a]
pIC50: > 6.60
--
COMPOUND: Cn1nc(C(F)(F)F)nc1C(=O)N[C@H]1CCCc2oc(-c3ccnc(C(F)(F)F)c3)nc21 [Compound I-241a]
pIC50: > 6.60

Below are 3 compounds. Give each one its pIC50.
1. CCc1cc(-n2cc3c(n2)CC[C@@H]3NC(=O)c2cc(C(F)(F)F)nn2C)ccn1 [Compound I-69a]
2. Cn1nc(C(F)(F)F)cc1C(=O)N[C@@H]1CCc2nn(-c3ccnc(OC(F)(F)F)c3)cc21 [Compound I-73b]
3. Cn1nc(C(F)(F)F)cc1C(=O)N[C@H]1CCc2nc(-c3ccnc(C(F)(F)F)c3)ccc21 [Compound I-134a]

Result:
> 6.60
6.00 to 6.30
> 6.60

Batch of 2 compounds: report pIC50 for each.
1. N#Cc1cccc(C(=O)N[C@H]2CCCc3oc(-c4ccnc(C(F)(F)F)c4)nc32)c1 [Compound I-297a]
2. Cn1nc(C(F)(F)F)cc1C(=O)N[C@H]1CCCCn2nc(-c3ccnc(C(F)(F)F)c3)nc21 (single isomer, unassigned) [I-272*]

Result:
1: > 6.60; 2: > 6.60

====

# ASSAYED TARGET: human, KCNT1 (Homo sapiens (Human), UniProt Q5JUK3)
# MEASUREMENT PROTOCOL: FLIPR Tl/K Flux Assay
# TEST CONDITIONS: HEK293 cells stably expressing human KCNT1; Tl+ flux stimulated with EC80 of agonist Loxapine
pIC50: −log10 of the molar value.
Answer each item with its documented pIC50.

MOLECULE: CN(C(=O)c1cc(C(F)(F)F)nn1C)[C@H]1CCCc2nn(-c3ccnc(C(F)(F)F)c3)cc21 [Compound I-37a]
pIC50: < 6.00

For every record below, what is its pIC50?
1. Cc1cccc(C(=O)N[C@H]2CCCc3cnc(-c4ccnc(C(F)(F)F)c4)cc32)c1 [Compound I-394a]
2. Cn1nc(C(F)(F)F)nc1C(=O)N[C@@H]1CCn2nc(-c3ccnc(C(C)(F)F)c3)cc21 [Compound I-480b]
3. Cn1nc(C(F)(F)F)cc1C(=O)NC1CCc2ccc(-c3ccnc(C(F)(F)F)c3)nc21 (stereo not shown) [Compound I-43]

Result:
1. 6.30 to 6.60
2. 6.00 to 6.30
3. < 6.00

Working through the 3 molecules below one at a time, give pIC50 for each.
1. O=C(N[C@H]1CCn2nc(-c3cc(C(F)(F)F)ncc3F)cc21)c1cccc(C(F)(F)F)c1 [Compound I-139a]
2. Cn1nc(C(F)(F)F)cc1C(=O)N[C@H]1CCc2nn(-c3ccnc(OC(F)F)c3)cc21 [Compound I-74a]
3. O=C(N[C@H]1CCn2nc(-c3ccnc(C(F)(F)F)c3)cc21)c1cccc(C(F)(F)F)c1 [Compound I-289a]

Result:
1: > 6.60; 2: > 6.60; 3: > 6.60

====

# ASSAYED TARGET: UniProtKB Q5JUK3
# MEASUREMENT PROTOCOL: FLIPR Tl/K Flux Assay
# TEST CONDITIONS: HEK293 cells stably expressing human KCNT1; Tl+ flux stimulated with EC80 of agonist Loxapine
pIC50: −log10 of the molar value.
VALUE KIND: pIC50

Observe how each entry below is paired with its result.
MOLECULE: CCc1cc(F)cc(C(=O)N[C@H]2CCc3nn(-c4ccnc(C(F)(F)F)c4)cc32)c1 [Compound I-127a]
ASSAYED TARGET: UniProtKB Q5JUK3
pIC50: > 6.60
//
MOLECULE: Cn1ncnc1C(=O)N[C@H]1CCCc2oc(-c3ccnc(C4CC4)c3)nc21 [Compound I-228a]
ASSAYED TARGET: UniProtKB Q5JUK3
pIC50: < 6.00
//
MOLECULE: COc1cc(-c2nc3c(o2)CCC[C@@H]3NC(=O)c2cncc(C(F)(F)F)n2)ccn1 [Compound I-211a]
ASSAYED TARGET: UniProtKB Q5JUK3
pIC50: > 6.60

Field pIC50 (entry CC(F)(F)c1cc(-c2cc3n(n2)CC[C@@H]3NC(=O)c2cccc(C#N)c2)ccn1 [Compound I-261a] ) reads > 6.60

====

For each of the molecules below, state its IC50.
# ASSAYED TARGET: human, KCNT1 (Homo sapiens (Human))
# MEASUREMENT PROTOCOL: FLIPR Tl/K Flux Assay
# TEST CONDITIONS: HEK293 cells stably expressing human KCNT1; Tl+ flux stimulated with EC80 of agonist Loxapine

Example cases with answers are listed next.
MOLECULE: Cn1nc(C(F)(F)F)cc1C(=O)NC1CCCc2nn(-c3ccc(=O)n(C)c3)cc21 (racemic) [Compound I-39]
IC50: > 1000 nM
--
MOLECULE: Cn1nc(C#N)cc1C(=O)N[C@H]1CCCc2nn(-c3ccnc(C(F)(F)F)c3)cc21 [Compound I-113a]
IC50: 250 to 500 nM
--
MOLECULE: Cn1nc(C(F)(F)F)cc1C(=O)NC1CCc2nn(-c3ccnc(C(F)(F)F)c3)cc2C1 (racemic) [Compound I-63]
IC50: < 250 nM
--
MOLECULE: O=C(N[C@H]1CCn2nc(-c3cc(C(F)(F)F)ncc3F)cc21)C1CC2(CC2)C1 [Compound I-522a]
IC50: < 250 nM
--
MOLECULE: N#Cc1cccc(C(=O)N[C@H]2CCCCn3nc(-c4ccnc(C(F)(F)F)c4)cc32)c1 [Compound I-443a]
IC50: < 250 nM

Record IC50 for all entries; do not skip any.
1. COc1cc(-c2nc3c(o2)[C@@H](NC(=O)c2cccc(OC(F)(F)F)c2)CCC3)ccn1 [Compound I-151a]
2. Cc1cc(C(=O)N[C@H]2CCCn3nc(-c4ccnc(C(F)(F)F)c4)cc32)cn(C)c1=O [Compound I-397a]
3. COc1cc(-c2cc3n(n2)CCC[C@@H]3NC(=O)c2cncc(C(F)(F)F)c2)ccn1 [Compound I-357a]
4. Cc1cc(Cl)ccc1C(=O)N[C@@H]1CCc2nn(-c3ccnc(C(F)(F)F)c3)cc21 [Compound I-95b]
5. O=C(NC1CCCc2nn(-c3ccnc(C(F)(F)F)c3)cc21)c1ccc(C(F)(F)F)cc1 (racemic) [Compound I-16]
6. Cn1nc(C(F)(F)F)nc1C(=O)N[C@@H]1CCCc2oc(-c3ccnc(C4CC4)c3)nc21 [Compound I-504b]
7. CCc1cc(-c2cc3n(n2)CCC[C@@H]3NC(=O)c2cc(C(F)(F)F)nn2C)ccn1 [Compound I-390a]

Result:
1. < 250 nM
2. > 1000 nM
3. < 250 nM
4. > 1000 nM
5. < 250 nM
6. > 1000 nM
7. < 250 nM
